Molecular target: T1, Recombinant human PDGF-BB (human, UniProt P01127 82-190)
T1 construct: For SPR it was chemically biotinylated on primary amines and captured on neutravidin; also called PDGF-BB (human); Reliatech 200-055
T1 sequence (P01127 82-190 limits assumed): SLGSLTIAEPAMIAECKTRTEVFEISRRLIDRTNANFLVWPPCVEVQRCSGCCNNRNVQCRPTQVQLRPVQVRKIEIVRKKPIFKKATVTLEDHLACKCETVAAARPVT
Assay: receptor competition ELISA: DARPin preincubated with PDGF-BB, free PDGF-BB captured on coated PDGFRbeta/Fc; mean IC50
Experimental: The potency of PEGylated anti-PDGF-BB DARPins to inhibit the binding of human PDGF-BB to its receptor PDGFRbeta was determined in a in a receptor competition ELISA (based on PDGF-BB Quantikine, R&D Systems). […] The color development was stopped and the intensity of the color was measured at 405 nm. […] IC₅₀ values were calculated from such titration curves obtained as described above using Graph Pad Prism software and standard procedures known to the person skilled in the art.
quantity: pIC50
# pIC50 is unitless: minus log10 of the molar concentration; print number only

binder	experimentalValue
DARPin #28 (designed binder) MRGSHHHHHHGSDLGKKLLEAARAGQDDEVRILMANGADVNAKDEEGTTPLHYAAVWGHLEIVEVLLKAGADVNAQDIYGATPADLAALVGHEDIAEVLQKLN	10.80

Turning now to a further binder:
In one line, give reported pIC50 of the entry DARPin #51 (designed binder) MRGSHHHHHHGSDLGKKLLEAARAGQDDEVRILMANGADVNAKDLNGQTPLHLAADIGHLEIVEVLLKAGADVNAKDYAGSTPLRLAAWAGHLEIVEVLLKAGADVNAKDYFGYTPLHLAAYFGHLEIVEVLLKAGADVNAQDKFGKTAFDISIDNGNEDLAEILQKLN .
11.10
